Parameter enrichment ratio: see the listing below.
B1: PhoQ; a variant is named by its letters at X, in order, P23837 (parent)
chain: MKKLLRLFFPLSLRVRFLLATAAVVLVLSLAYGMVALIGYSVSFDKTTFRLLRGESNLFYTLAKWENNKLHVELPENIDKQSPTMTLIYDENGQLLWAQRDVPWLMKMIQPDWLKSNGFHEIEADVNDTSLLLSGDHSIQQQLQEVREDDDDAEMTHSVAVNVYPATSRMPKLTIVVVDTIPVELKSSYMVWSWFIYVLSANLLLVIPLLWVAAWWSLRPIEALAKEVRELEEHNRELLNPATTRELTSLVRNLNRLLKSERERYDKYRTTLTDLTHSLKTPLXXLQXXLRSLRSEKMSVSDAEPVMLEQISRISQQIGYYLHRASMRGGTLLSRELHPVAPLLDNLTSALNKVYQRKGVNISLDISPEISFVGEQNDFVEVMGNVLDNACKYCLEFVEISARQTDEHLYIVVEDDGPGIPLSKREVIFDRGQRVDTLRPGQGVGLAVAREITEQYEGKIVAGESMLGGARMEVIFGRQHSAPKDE

# Variants of: B1
# ASSAY SUMMARY: enrichment ratio after two sorts for PhoP signalling (ratio (wild type AVST 3.29)); higher = more functional
# STATED CONDITIONS: with PhoP (E. coli)
In all, about 140,000 sequences were measured (“enrichment ratio after two sorts for PhoP signalling”: median about 0, highest 2% from about 11 on). Shown is part of a subset that was picked to be rich in the highest values.

Completed entries (count: 3):
- CHANGES: "YTTF"
  enrichment ratio: "≤ 0.25"
- CHANGES: "DMSA"
  enrichment ratio: "≤ 0.25"
- CHANGES: "TMMN"
  enrichment ratio: 11.5

As a next step, examine the variant that follows.
IN: Identify measured enrichment ratio associated with DMMN
OUT: ≤ 0.25
